For each record, write down the corresponding pIC50.
# Experimental System: His6-TEV-PDGFRβ (557-1016) (Homo sapiens (Human))
# Sequence (P09619 whole entry, looked up): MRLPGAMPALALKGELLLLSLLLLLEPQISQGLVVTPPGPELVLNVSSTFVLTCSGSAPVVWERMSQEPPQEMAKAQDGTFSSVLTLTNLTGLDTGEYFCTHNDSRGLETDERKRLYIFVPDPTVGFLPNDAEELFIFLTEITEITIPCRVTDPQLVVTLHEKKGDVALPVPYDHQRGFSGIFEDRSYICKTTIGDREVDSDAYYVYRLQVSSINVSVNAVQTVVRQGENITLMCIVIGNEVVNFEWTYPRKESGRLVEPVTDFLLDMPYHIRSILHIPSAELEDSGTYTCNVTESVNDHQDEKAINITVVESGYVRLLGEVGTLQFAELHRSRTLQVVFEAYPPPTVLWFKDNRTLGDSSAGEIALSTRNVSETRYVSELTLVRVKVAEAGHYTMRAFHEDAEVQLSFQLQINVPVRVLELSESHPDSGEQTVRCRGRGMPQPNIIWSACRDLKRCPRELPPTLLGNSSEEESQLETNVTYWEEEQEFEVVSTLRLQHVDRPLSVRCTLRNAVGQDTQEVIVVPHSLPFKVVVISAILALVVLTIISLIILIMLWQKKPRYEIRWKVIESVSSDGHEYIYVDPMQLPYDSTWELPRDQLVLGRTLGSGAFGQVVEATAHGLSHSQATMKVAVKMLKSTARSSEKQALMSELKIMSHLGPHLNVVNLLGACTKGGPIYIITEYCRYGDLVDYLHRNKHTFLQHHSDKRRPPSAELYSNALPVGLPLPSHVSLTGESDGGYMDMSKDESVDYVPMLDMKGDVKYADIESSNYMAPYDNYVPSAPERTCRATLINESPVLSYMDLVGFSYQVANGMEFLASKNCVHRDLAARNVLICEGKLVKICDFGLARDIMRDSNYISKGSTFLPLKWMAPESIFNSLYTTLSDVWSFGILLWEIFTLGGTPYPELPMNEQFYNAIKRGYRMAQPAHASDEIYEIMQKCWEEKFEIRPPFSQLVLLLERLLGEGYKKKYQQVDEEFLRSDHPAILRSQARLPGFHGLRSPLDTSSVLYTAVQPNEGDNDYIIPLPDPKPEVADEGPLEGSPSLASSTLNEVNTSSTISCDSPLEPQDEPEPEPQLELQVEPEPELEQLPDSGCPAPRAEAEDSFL
# Assay Protocol: PDGFRβ HTRF Assay
# Type: biochemical
# Test Parameters: 800 μM ATP, 0.5 μM TK-substrate biotin peptide, 30 min pre-incubation, 3 hours reaction; read-out: PDGFR HTRF IC50
Please treat pIC50 as minus the base-10 logarithm of the molar concentration.

Could you please provide reported pIC50 for Cc1ncc(C(=O)NCCC2CCCCC2)cc1Nc1nn(C)c2nc(Nc3cncc(CC(=O)O)c3)ncc12 ? Thanks!
9.26

Give pIC50 for the following compound: CC[C@@H]1CN(CCNC(=O)c2cnc(C)c(Nc3nn(C)c4nc(Nc5cnn(C)c5)ncc34)c2)CCO1
9.46

Specify measured pIC50 for Cc1ncc(C(=O)NCCN2CC3CCC2CC3)cc1Nc1nn(C)c2nc(Nc3cnn(C)c3)ncc12 .
9.57

// fetch pIC50 given entry Cc1ncc(C(=O)NCCN2CCCC2(C)C)cc1Nc1nn(C)c2nc(Nc3cncc(CC(=O)O)c3)ncc12
8.92

Report pIC50 for Cn1cc(Nc2ncc3c(Nc4cc(C(=O)NCCN5CCC6(CC6)C5)ccc4F)nn(C)c3n2)cn1
9.82

Indicate its recorded pIC50; the compound in question is Cc1ncc(C(=O)NCCN2C[C@H](C)O[C@@H](C)C2)cc1Nc1nn(C)c2nc(Nc3ccncc3)ncc12
9.32

Read off the recorded pIC50 for Cc1cc(C(=O)NCCN2CCC[C@@H]2C)sc1Nc1nn(C)c2nc(Nc3cnn(C)c3)ncc12
9.19

Quickly give me recorded pIC50 for Cc1ncc(C(=O)NCCN2CCC23CCC3)cc1Nc1nn(C)c2nc(Nc3cnn(C)c3)ncc12
9.44

State, in one line, measured pIC50 of Cc1ncc(C(=O)NCCN2CCCC2(C)C)cc1Nc1nn(C)c2nc(Nc3cncc(C(=O)O)c3)ncc12
8.42

Find the measured pIC50 of Cc1ncc(C(=O)NCCN(CCO)C2CCCC2)cc1Nc1nn(C)c2nc(Nc3cnn(C)c3)ncc12 and report it.
9.34

Specify reported pIC50 for the compound shown: COc1ncccc1Nc1ncc2c(Nc3cc(NC(=O)CN4CCC[C@@H]4C)cnc3C)nn(C)c2n1
8.63

Give the value of pIC50 reported for the following: COCCn1cc(Nc2ncc3c(Nc4cc(NC(=O)CN5CCC6(CC6)C5)cnc4C)nn(C)c3n2)cn1
9.46

Give a short answer stating reported pIC50 for Cc1ncc(C(=O)NCCN2[C@H](C)CCC[C@@H]2C)cc1Nc1nn(C)c2nc(Nc3cncnc3)ncc12 .
9.05

// fetch pIC50 given entry Cc1ncc(C(=O)NCCN2CCCC2(C)C)cc1Nc1nn(C)c2cc(Nc3cnn(C)c3)ncc12
8.90

Please list pIC50 recorded for the compound Cc1ncc(C(=O)NCCN2CCCC2(C)C)cc1Nc1nn(C)c2nc(Nc3cnn(C)n3)ncc12
8.91

Specify reported pIC50 for the compound shown: Cc1ccc(C(=O)NCCN2CCC3(CC3)C2)cc1Nc1nn(C)c2nc(Nc3cnn(C)c3)ncc12
9.66

Return pIC50 (reported value) for this compound: Cc1ncc(C(=O)NCCN2CCCC2(C)C)cc1Nc1nn(C)c2nc(Nc3ccc(=O)[nH]n3)ncc12
8.39

Look up and report measured pIC50 for this entry: Cc1ncc(C(=O)NCCN2CCCC2(C)C)cc1Nc1nn(C)c2nc(Nc3ccc(=O)n(C)n3)ncc12
8.60

Give the reported value of pIC50 for this record: Cc1ncc(NC(=O)C2(C(=O)N3CCNCC3)CC2)cc1Nc1nn(C)c2nc(Nc3cnn(C)c3)ncc12
8.37

Specify pIC50 for Cc1ncc(C(=O)NCCN2CCC3(CCC3)CC2)cc1Nc1nn(C)c2nc(Nc3cncnc3)ncc12 and stop.
9.32

Recall and state the measured pIC50 for Cc1ncc(C(=O)NCCN2CCOCC23CC3)cc1Nc1nn(C)c2nc(Nc3cncnc3)ncc12 .
8.81

Read the entry Cc1ncc(NC(=O)CN2CC[C@H](C)C2)cc1Nc1nn(C)c2nc(Nc3cnn(C)c3)ncc12 and write its reported pIC50.
9.64

Quickly give me recorded pIC50 for COCCN(CCNC(=O)c1cnc(C)c(Nc2nn(C)c3nc(Nc4cnn(C)c4)ncc23)c1)C1CCCC1
9.28

Please indicate pIC50 recorded for Cc1ncc(C(=O)NCCN2CC(C)(C)C2)cc1Nc1nn(C)c2nc(Nc3cncnc3)ncc12
9.26

Indicate the recorded pIC50 value for this compound: Cc1ncc(C(=O)NCCN2CCCC2(C)C)cc1Nc1nn(C)c2nc(Nc3ccc(N4CCOCC4)nc3)ncc12
9.43

Return pIC50 (reported value) for this compound: Cc1ncc(C(=O)NCCN2C[C@H](C)O[C@@H](C)C2)cc1Nc1nn(C)c2nc(Nc3ccnc(N4CCC(CCO)CC4)c3)ncc12
9.24

Report pIC50 for Cc1ncc(C(=O)NCCC2CCCCC2)cc1Nc1nn(C)c2nc(Nc3ccc(N4CCNCC4)nc3)ncc12
9.11

Provide one value: measured pIC50 of Cc1ccc(C(=O)NCCN2CCC[C@@H]2C)cc1Nc1nn(C)c2nc(Nc3cnn(C)c3)ncc12
9.66

# return recorded pIC50 for input Cc1ncc(C(=O)NCCN2CCCC2(C)C)cc1Nc1nn(C)c2nc(Nc3cnn4c3OCCC4)ncc12
7.06

Entry Cc1ncc(C(=O)NCCN2CCCC2(C)C)cc1Nc1nn(C)c2nc(Nc3ccnn3C)ncc12 needs its pIC50 filled in; supply it.
8.47

Origin of measurements: patent US20240360134A1
